Biological target: Broad substrate specificity ATP-binding cassette transporter ABCG2 (Homo sapiens, UniProt Q9UNQ0)
Sequence (Q9UNQ0 whole entry): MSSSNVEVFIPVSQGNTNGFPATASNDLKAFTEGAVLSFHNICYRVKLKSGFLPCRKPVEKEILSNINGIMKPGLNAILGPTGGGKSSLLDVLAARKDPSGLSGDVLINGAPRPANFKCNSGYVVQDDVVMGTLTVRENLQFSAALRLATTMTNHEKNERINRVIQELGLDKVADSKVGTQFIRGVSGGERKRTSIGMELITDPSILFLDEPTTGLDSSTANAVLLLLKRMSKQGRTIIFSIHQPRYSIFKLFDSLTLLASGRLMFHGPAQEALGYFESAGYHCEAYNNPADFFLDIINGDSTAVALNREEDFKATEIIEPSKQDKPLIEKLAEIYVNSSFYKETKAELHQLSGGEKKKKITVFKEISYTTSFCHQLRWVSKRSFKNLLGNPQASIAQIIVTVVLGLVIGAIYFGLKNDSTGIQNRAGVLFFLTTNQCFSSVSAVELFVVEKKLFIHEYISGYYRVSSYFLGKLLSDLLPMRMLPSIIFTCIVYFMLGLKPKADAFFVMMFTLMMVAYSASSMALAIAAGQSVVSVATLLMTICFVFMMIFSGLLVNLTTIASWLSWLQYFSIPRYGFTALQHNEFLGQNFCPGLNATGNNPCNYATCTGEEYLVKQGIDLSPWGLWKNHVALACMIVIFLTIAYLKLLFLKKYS
Assay: Inhibition of ABCG2 expressed in human NCI-H460 cells assessed as inhibition of PhA accumulation relative to fumitremorgin C
Assay type: cell-based

- record.smiles: "COc1cc(O)cc2cc(O)c3c(=O)cc(C)oc3c12"
  inhibition (INH): "31%"
- record.smiles: "COc1cc(O)c2c(O)c3c(=O)cc(C)oc3c(OC)c2c1"
  inhibition (INH): "Not Active"
- record.smiles: "COc1c(OC)c2c(=O)cc(C)oc2c2c(OC)cc(O)cc12"
  inhibition (INH): "Not Active"
- record.smiles: "CCCc1cc(=O)c2c(O)c3c(O)cc(OC)cc3c(OC)c2o1"
  inhibition (INH): "Not Active"
- record.smiles: "COc1c(O)c2c(=O)cc(C)oc2c2c(OC)cc(O)cc12"
  inhibition (INH): "59.3%"
- record.smiles: "CCCc1cc(=O)c2c(OC)cc3cc(O)cc(OC)c3c2o1"
  inhibition (INH): "46.3%"
- record.smiles: "COc1cc(O)cc2cc3oc(C)cc(=O)c3c(O)c12"
  inhibition (INH): "Not Active"
- record.smiles: "CCCc1cc(=O)c2c(OC)c(OC)c3cc(O)cc(OC)c3c2o1"
  inhibition (INH): "44%"
- record.smiles: "CCCc1cc(=O)c2c(O)cc3cc(O)cc(OC)c3c2o1"
  inhibition (INH): "54.3%"
- record.smiles: "CCCc1cc(=O)c2c(O)c3c(OC)cc(O)cc3cc2o1"
  inhibition (INH): "Not Active"
- record.smiles: "CCCc1cc(=O)c2c(O)c(OC)c3cc(O)cc(OC)c3c2o1"
  inhibition (INH): "27.5%"

---

Molecular target: Broad substrate specificity ATP-binding cassette transporter ABCG2 (Homo sapiens, UniProt Q9UNQ0)
Experiment: Inhibition of ABCG2-mediated drug efflux expressed in human NCI-H460 cells
Assay type: cell-based
Conditions: read-out: IC50
pIC50: −log10 of the molar value.
recorded.metric: pIC50

- record.smiles: "CCCc1cc(=O)c2c(OC)cc3cc(O)cc(OC)c3c2o1"
  sign.qualifier: "="
  reading: 5.23
- record.smiles: "COc1cc(O)cc2cc(O)c3c(=O)cc(C)oc3c12"
  sign.qualifier: "="
  reading: 4.89
- record.smiles: "COc1c(O)c2c(=O)cc(C)oc2c2c(OC)cc(O)cc12"
  sign.qualifier: "="
  reading: 4.92
- record.smiles: "CCCc1cc(=O)c2c(OC)c(OC)c3cc(O)cc(OC)c3c2o1"
  sign.qualifier: "="
  reading: 4.78
- record.smiles: "CCCc1cc(=O)c2c(O)cc3cc(O)cc(OC)c3c2o1"
  sign.qualifier: "="
  reading: 5.05
- record.smiles: "CCCc1cc(=O)c2c(O)c(OC)c3cc(O)cc(OC)c3c2o1"
  sign.qualifier: "<"
  reading: 4.70
